Values were extracted from the supplement of paper PMC9170038.

test system: MS2 coat protein; test: apparent KD of MS2 coat protein; designed switch direction (-1 OFF switch, 1 ON switch): -1; higher = weaker reporter binding; conditions: input ligand: none
Would you mind labelling by apparent KD of MS2 coat protein? At or over 30 nM is True, under is False.

[
  {
    "seq": "AACUCUGAGAAGGAUAUGGUACGGGAAAUGGUACCAGAAGGUUUCACAUGAGGAUCACCCAUGUCGAAUAGUGA [EX6 #68] (Eterna round: R97, puzzle: Exclusion 6)",
    "qualitative label": "False"
  },
  {
    "seq": "UAGCAAUGAGAUGGGUUCCACAUGAGGAUCACCCAUGUCCAAGCUCAGAGCUCGUCUUAUUUGAGAUACUUCACUGU [Eternabot (L2) Solution 50] (Eterna round: R97, puzzle: Sensor, turn-off variant 1)",
    "qualitative label": "True"
  },
  {
    "seq": "GCCUUAUCUGUCAGGAUAUACAAUAAAAUAAUUAUGUAGAAGGGACAUGAGGAUCACCCAUGUACAUUACAUUG [alecazam25] (Eterna round: R97, puzzle: Brourd's mod of Exclusion 4)",
    "qualitative label": "False"
  },
  {
    "seq": "CCCACAAGCUUUUUGCUCGACAUGAGGAUCACCCAUGUAAAAUGGGUAAAUUUAAAUUGAAACAAUUUAAAUUUGGG [-20.1, -44.2 kcal, A 35%] (Eterna round: R97, puzzle: Sensor, turn-off variant 1)",
    "qualitative label": "True"
  },
  {
    "seq": "AUUGUUUGAUACCUCUAAUACAUGAGGAUCACCCAUGUUAUCGAGGAUAUGCAGAAGAGAGGAGAGCAGAAGGCGAAGUAAGAG [JR_ExcNG3_Sub027] (Eterna round: R96, puzzle: Exclusion NG 3)",
    "qualitative label": "False"
  },
  {
    "seq": "UCAUGUCCUGAGGAUAUCAAAGUCCUCCCGACAUGAGAAGGCAGGACAUGAGGAUCACCCAUGUGGAGCAGGGA [Sorareardi] (Eterna round: R97, puzzle: Exclusion 6)",
    "qualitative label": "True"
  },
  {
    "seq": "AACUAAACAUGAGGAUAUGCCUGGGAAGAACAGGCAGAAGGCGUGACAUGAGGAUCACCCAUGUAGCCGGGCUAUUCUCAUGCG [Cediceor] (Eterna round: R96, puzzle: Exclusion NG 1)",
    "qualitative label": "True"
  },
  {
    "seq": "GCGGAUUAUGUAGGAUAUCGGUCAGUUUCUGAUCGAGAAGGACAUGAGGAUCACCCAUGUAAAUUCCUCGCUUUGUGAGGCCGC [JL ENG1 3.64] (Eterna round: R96, puzzle: Exclusion NG 1)",
    "qualitative label": "False"
  },
  {
    "seq": "CUGCUGGAGCGGCGCUUUGGUCGUACAUGAGGAUCACCCAUGUAGGAUAUGGUAAAAUUUGCCUGCUAGAAGGAUAGAGUGGUC [salish99_ExNG3_r04_616] (Eterna round: R96, puzzle: Exclusion NG 3)",
    "qualitative label": "True"
  }
]
